Hey, just so you know, these numbers are from PubChem BioAssay AID330.

# Test system: P388 leukemia ip, CD2F1 mice, survival T/C
# experiment_summary: NCI In Vivo Anticancer Drug Screen. Data for tumor model P388 Leukemia (intraperitoneal) in CD2F1 (CDF1) mice
# assay_conditions: endpoint: median survival time; dose: 50.0 mg/kg/injection; schedule: Q04DX003 (ip); vehicle: saline with Tween-80; higher = longer survival
Toxic doses and inconclusive results are not listed.
Below is a list of entries, each paired with its recorded T/C value.

Example results:
compound	reported_endpoint	result
Cc1[nH]nc(C(N)=O)c1N=NN(C)C	T/C	122 % of control
NC(=S)N/N=C\c1ncnc2ccccc12	T/C	120 % of control
O=c1cc(-c2ccccc2)[nH]c(=O)[nH]1	T/C	101 % of control
CN1CCCC2C(c3ccccc3)C(C3=NCCCC3)C(c3ccccc3)CC21 (stereo unspecified)	T/C	100 % of control
CC(=O)OCC(=O)[C@@]1(O)CC[C@H]2[C@@H]3CCC4=CC(=O)C=C[C@]4(C)[C@H]3C(=O)C[C@@]21C	T/C	104 % of control

The record that follows has no T/C shown yet.
Give T/C (P388 leukemia ip, CD2F1 mice, survival T/C) of the following compound: C=C1C(=O)O[C@@H]2C[C@@]3(C)CC(=O)C=C(C)[C@@H]3C[C@H]12
100 % of control
